test system: HCT-15 colon; assay: NCI-60 one-dose screen, 48 h; conditions: 10 µM unless noted
Compounds without any hit were thinned out: in the full panel of roughly 83,000, 20% have a hit. Active and inactive are the calls of the source. Rule for the calls: active = growth percent below 10; inactive = the rest.
Respond only with the outcome that fits, drawn from 1.0 (active), 0.0 (inactive)

Exam item: Give the logged outcome of this assay for the following compound: Nc1n[nH]c2ccc([C@H]3[C@@H]4C5CCC(C5)[C@@H]4c4c(ccc5[nH]ncc45)N3S(=O)(=O)C3CC3)cc12 (stereo not given in full)
Marked response: 0.0

Exam item: Hi team, can someone confirm the assay call for COC(=O)c1nc(-c2ccc(C)cc2)oc1S(=O)(=O)c1cccc(OC)c1 ?
Marked response: 0.0

Exam item: Hi, sorry to bother you, what did the test record for COC(=O)CC[C@@H]1O[C@@H](c2cccc(C(F)(F)F)c2)[C@@H](O)[C@H]1O ?
Marked response: 0.0

Exam item: Outcome logged for COc1ccc(NC2=C(I)C(=O)c3ncccc3C2=O)cc1 in this assay:
Marked response: 1.0

Exam item: Look up the recorded call for O=C(Nc1nc2ccccc2s1)c1ccc(F)cc1 in this test.
Marked response: 0.0

Exam item: State the result this test recorded for O=C(NNC(=O)c1ccc(NC(=O)c2ccccn2)cc1)Nc1ccc([N+](=O)[O-])cc1 .
Marked response: 0.0

Exam item: Per the assay record, what outcome was assigned to Nc1n[nH]c2cccc(C#Cc3cccc(C(=O)Nc4cc(C(F)(F)F)cc(C(F)(F)F)c4)c3)c12 ?
Marked response: 0.0

Exam item: Recorded call for CCOC(=O)NC(C)C ?
Marked response: 0.0

Exam item: Which outcome did this test record for the compound NC(=O)c1c(NC(=O)c2ccc3ccccc3c2)sc2c1CCC(=O)C2 ?
Marked response: 0.0

Exam item: Dear colleague, could you share the recorded outcome for CC1=NC2=Nn3c(c4cnn(-c5ccccc5)c4n/c3=N\N)NN2C(c2ccccc2)=C1 when you have a moment?
Marked response: 0.0

----------
System: SF-295 CNS
Test: NCI-60 one-dose screen, 48 h
Details: 10 µM unless noted
Experimental: Cells are grown in 96 well plates and exposed to the test compound for 48 hours. Compounds are tested at a single concentration, which is 10^-5 M for most compounds. The reported endpoint is percent growth (GI% or GIPRCNT), where numbers from 0 - 100% represent growth inhibition, and numbers from -100% - 0 represent cell death. For example, a value of 40 represents 60% growth inhibition. A value of 0 means no net growth occurred over the course of the experiment. […]
This is part of a sample that, as a whole, favours compounds with a hit. Of some 83,000 tested, about 20% had one in any assay. Calls of active or inactive are those of the source. How the source made its calls: active means growth percent below 10; inactive means the rest.
Tick one outcome: active, inactive

Exam item: Write down the call the test reported for this molecule. Item: COc1cc2c(cc1OCCCN1CCN(CCCOc3cc4c(cc3OC)C(=O)N3CC(F)(F)C[C@H]3C=N4)CC1)N=C[C@@H]1CC(F)(F)CN1C2=O
Marked response: inactive

Exam item: Call for entry Cn1ccnc1C(=O)/C=C/c1ccc(C(=O)Nc2ccccc2O)cc1 :
Marked response: active

Exam item: Outcome logged for CC(=O)n1nc(C(=O)OC(C)(C)c2ccccc2)c2ccccc21 in this assay:
Marked response: inactive

Exam item: Which outcome was entered for the molecule O=C(O)CCCN1C(=O)/C(=C/c2cn(-c3ccccc3)nc2-c2ccc([N+](=O)[O-])cc2)SC1=S in this test?
Marked response: inactive

Exam item: Check the results log: what was the call for OCCn1cc(-c2nc(-c3c[nH]c4ncccc34)cs2)c2ccccc21 ?
Marked response: inactive

Exam item: # outcome recorded in this test, key = CC(C)=CC(=O)OCC(=O)O[C@@H]1C[C@]2(C(C)C)O[C@@]1(C)[C@@H]1CC[C@@H](C)[C@H]1[C@@H]2OC(=O)/C=C/c1ccccc1
Marked response: inactive

Exam item: Recorded call for Nc1n[nH]c2cccc(C#Cc3cccc(NC(=O)c4cc(F)cc(C(F)(F)F)c4)c3)c12 ?
Marked response: inactive

Exam item: Outcome logged for COc1ccc(-c2cc(-c3ccc(Cl)cc3)c(C#N)c(=O)n2Cc2ccc(C(=O)Nc3ccccc3N)cc2)cc1 in this assay:
Marked response: inactive

Exam item: Lab log entry: Cc1ccc2c(Cn3cc(CSc4nc5ccccc5o4)nn3)cc(=O)oc2c1 — outcome as called in the assay?
Marked response: inactive
